- Tested on: RXF 393 renal
- protocol_details: NCI tumour cell line growth inhibition, 48 h
# maps each entry to its TGI

Would you please look over these solved cases?
>  <compound>
COC(=O)/C=C/[C@H]1[C@H](C)N1S(=O)(=O)c1ccc(C)cc1 (stereo not given in full)

>  <tested_on>
RXF 393 renal

>  <TGI>
> 100 µM

$$$$
>  <compound>
CCN(CC)C(=O)N1CN(c2ccccc2)C2(CCN(CCCC3(c4ccc(F)cc4)OCCO3)CC2)C1=O

>  <tested_on>
RXF 393 renal

>  <TGI>
27.8 µM

$$$$
>  <compound>
CCCCCCCCCCCC(=O)[O][Sn]([CH2]CCC)([CH2]CCC)[CH2]CCC

>  <tested_on>
RXF 393 renal

>  <TGI>
0.117 µM

$$$$

Inquiry: Requested read-out: TGI. Entry: CCN(CC)CCCNc1c2cc(OC)ccc2nc2cccc([N+](=O)[O-])c12
Reply text: 0.23 µM

Inquiry: Requested read-out: TGI. Entry: Nc1nc(=O)n(C2CC(O)C(CO)O2)c2nc(-c3ccc(-c4ccccc4)cc3)cnc12 (stereo not given)
Reply text: > 100 µM
